experiment: Mouse in vivo pharmacokinetics, oral dose; settings: plasma, po 5 mg/kg
REPORTED ENDPOINT: AUC (µM·h)
Supply the numeric figure in µM·h, leaving out any unit text.

Challenge: Which AUC is listed for CCC(=O)CCCCC[C@@H](NC(=O)C1CN(C)C1)c1ncc(-c2cc3ccccc3nc2OC)o1 ?
Response given: 5.93

###

tested on: human γ-globin promoter (EGFP reporter) in K562 cells; experiment: HbF activation assay on K562 (EGFP/RFP reporter model system for screening of inducers of fetal hemoglobin); format: cell-based; details: 60 hours
pEC50: −log10 of the molar value.
REPORTED ENDPOINT: pEC50

Some solved entries appear below for comparison.
[[record]]
molecule = "CCC(=O)CCCCC[C@H](NC(=O)Cc1c(C)[nH]c2ccc(OC)cc12)c1ncc(-c2cc3ccccc3nc2OC)o1"
reported_endpoint = "pEC50"
measured = "< 6.00"

[[record]]
molecule = "CCC(=O)CCCCC[C@H](NC(=O)[C@@H]1CC(F)(F)CN1)c1ncc(-c2cc3ccccc3nc2OC)o1"
reported_endpoint = "pEC50"
measured = "< 6.00"

[[record]]
molecule = "CCC(=O)CCCCC[C@H](NC(=O)c1cc(CN2CCCCC2)ns1)c1ncc(-c2cc3ccccc3nc2OC)o1"
reported_endpoint = "pEC50"
measured = "< 6.00"

[[record]]
molecule = "CCC(=O)CCCCC[C@H](NC(=O)c1cncs1)c1ncc(-c2cc3ccccc3nc2OC)o1"
reported_endpoint = "pEC50"
measured = "< 6.00"

[[record]]
molecule = "CCC(=O)CCCCC[C@H](NC(=O)[C@H](CC(F)(F)F)N(C)C)c1ncc(-c2cc3ccccc3nc2OC)o1"
reported_endpoint = "pEC50"
measured = "< 6.00"


Challenge: Form field: reported pEC50 of CCC(=O)CCCCC[C@H](NC(=O)C(=O)N1CCN(C)CC1)c1nnc(-c2cc3ccccc3nc2OC)o1
Response given: < 6.00

Challenge: Give its pEC50 value. Item: CCC(=O)CCCCC[C@H](NC(=O)C(=O)N(C)C)c1ncc(-c2cc3ccccc3nc2OC)o1
Response given: < 6.00

###

Known EC50 of a selection of molecules
tested on: human γ-globin promoter (EGFP reporter) in K562 cells; assay: HbF activation assay on K562 (EGFP/RFP reporter model system for screening of inducers of fetal hemoglobin); assay type: cell-based; conditions: 60 hours

# annotated cases, reported EC50 shown
[[record]]
structure_string = "CCC(=O)CCCCC[C@H](NC(=O)Cn1cncn1)c1ncc(-c2cc3ccccc3nc2OC)o1"
measured = "> 1000 nM"

[[record]]
structure_string = "CCC(=O)CCCCC[C@H](NC(=O)c1nnc(C)o1)c1ncc(-c2cc3ccccc3nc2OC)o1"
measured = "> 1000 nM"

[[record]]
structure_string = "CCC(=O)CCCCC[C@H](NC(=O)CCn1c(CC)nc2ccccc21)c1nnc(-c2cc3ccccc3nc2OC)o1"
measured = "100 to 1000 nM"

[[record]]
structure_string = "CCC(=O)CCCCC[C@H](NC(=O)c1ccnc(Cl)c1)c1ncc(-c2ccccc2)o1"
measured = "> 1000 nM"


Challenge: Looking for the measured EC50 of CCC(=O)CCCCC[C@H](NC(=O)C1CNC1)c1ncc(-c2cc3ccccc3nc2OC)o1 , can you help?
Response given: > 1000 nM

Challenge: Quick check: EC50 of CCC(=O)CCCCC[C@H](NC(=O)Cn1c(C)nc2ccccc21)c1ncc(-c2ccccc2)o1 ?
Response given: > 1000 nM

Challenge: What value of measured EC50 is listed for CCC(=O)CCCCC[C@H](NC(=O)C1CCN(C)CC1)c1ncc(-c2cc3ccccc3nc2OC)o1 ?
Response given: 100 to 1000 nM

Challenge: Which EC50 is reported for this molecule? CCC(=O)CCCCC[C@H](NC(=O)c1cncs1)c1ncc(-c2ccccc2)o1
Response given: > 1000 nM

###

experiment: Intrinsic clearance in pooled human liver microsomes; type: in vitro ADME; conditions: pH 7.4
Listed here: items and their measured microsomal CLint at 1 μM.
Write the value in µL/min/mg as a bare number.

[[record]]
structure_string = "CCC(=O)CCCCC[C@@H](NC(=O)C1CN(C)C1)c1ncc(-c2cc3ccccc3nc2OC)o1"
measured = 3

[[record]]
structure_string = "CCC(=O)CCCCC[C@H](NC(=O)C1CN(C)C1)c1nnc(-c2cc3ccccc3nc2OC)o1"
measured = 60

[[record]]
structure_string = "CCC(=O)CCCCC[C@H](NC(=O)C1CN(C)C1)c1ncc(-c2cc3ccccc3nc2OC)o1"
measured = 13


// switching to the query compound
Challenge: What value of microsomal CLint at 1 μM has been reported for the following compound? CCC(=O)CCCCC[C@H](NC(=O)C1CN(C)C1)c1ncc(-c2cc3ccccc3[nH]c2=O)o1
Response given: 11

###

Assay: Mouse in vivo pharmacokinetics, oral dose
Details: plasma, po 10 mg/kg
Protocol: Compounds of the invention were evaluated in in vitro and in vivo pharmacokinetic studies.
REPORTED ENDPOINT: Cmax (nM)
Number only, in nM; omit the unit.

[[record]]
molecule = "CCC(=O)CCCCC[C@H](NC(=O)C1CN(C)C1)c1ncc(-c2cc3ccccc3n(C)c2=O)o1 [Compound 92]"
value_units = "nM"
measured = 100


Kindly consider the entry below.
Challenge: Quick check: Cmax of CCC(=O)CCCCC[C@H](NC(=O)C1CN(C)C1)c1nnc(-c2cc3ccccc3nc2OC)o1 [Compound 52] ?
Response given: 630

###

Tested on: human γ-globin promoter (EGFP reporter) in K562 cells
Assay: HbF activation assay on K562 (EGFP/RFP reporter model system for screening of inducers of fetal hemoglobin)
Type: cell-based
Conditions: 60 hours
Source text: In order to test several compounds, a model system was produced based on previous findings present in the literature. […]
REPORTED ENDPOINT: EC50

Challenge: What value of EC50 has been recorded for this entry: CCC(=O)CCCCC[C@H](NC(=O)[C@@H](CC(F)(F)F)N(C)C)c1ncc(-c2cc3ccccc3nc2OC)o1 [Compound 64]
Response given: > 1000 nM

Challenge: Look up EC50 for this molecule: CCC(=O)CCCCC[C@H](NC(=O)C(=O)N1CCN(C)CC1)c1ncc(-c2cc3ccccc3nc2OC)o1 [Compound 37]
Response given: > 1000 nM

Challenge: Give its EC50 value. Item: CCC(=O)CCCCC[C@H](NC(=O)c1csc(CN(C)C)n1)c1ncc(-c2cc3ccccc3nc2OC)o1 [Compound 103]
Response given: > 1000 nM

Challenge: Using the record for CCC(=O)CCCCC[C@H](NC(=O)Cc1ncccn1)c1ncc(-c2cc3ccccc3nc2OC)o1 [Compound 79] , report its EC50.
Response given: > 1000 nM

###

test: Intrinsic clearance in pooled rat liver microsomes; type: in vitro ADME; conditions: pH 7.4
Use 20 µL/min/mg as the dividing line for microsomal CLint at 1 μM, with the line itself on the criterion met side and lower values as criterion not met.

As a guide, the following entries are already answered.
[[record]]
structure_string = "CCC(=O)CCCCC[C@H](NC(=O)C1CN(C)C1)c1nnc(-c2cc3ccccc3nc2OC)o1"
label_class = "criterion met"

[[record]]
structure_string = "CCC(=O)CCCCC[C@H](NC(=O)C1CN(C)C1)c1ncc(-c2cc3ccccc3[nH]c2=O)o1"
label_class = "criterion not met"

[[record]]
structure_string = "CCC(=O)CCCCC[C@H](NC(=O)C1CN(C)C1)c1ncc(-c2cc3ccccc3n(C)c2=O)o1"
label_class = "criterion not met"

[[record]]
structure_string = "CCC(=O)CCCCC[C@@H](NC(=O)C1CN(C)C1)c1ncc(-c2cc3ccccc3nc2OC)o1"
label_class = "criterion met"


Now for a further molecule.
Challenge: Hi team, for CCC(=O)CCCCC[C@H](NC(=O)C1CN(C)C1)c1ncc(-c2cc3ccccc3nc2OC)o1 , is the recorded microsomal CLint at 1 μM at or above 20 µL/min/mg?
Response given: criterion met

###

A collection of compounds and their measured pEC50
tested on: human γ-globin promoter (EGFP reporter) in K562 cells; assay: HbF activation assay on K562 (EGFP/RFP reporter model system for screening of inducers of fetal hemoglobin); assay type: cell-based; conditions: 60 hours
pEC50: −log10 of the molar value.

[[record]]
compound = "CCC(=O)CCCCC[C@H](NC(=O)Cn1nc(C)nc1C)c1ncc(-c2cc3ccccc3nc2OC)o1 [Compound 80]"
reported_endpoint = "pEC50"
measured = "6.00 to 7.00"

[[record]]
compound = "CCC(=O)CCCCC[C@H](NC(=O)Cc1c(C)[nH]c2ccc(OC)cc12)c1ncc(-c2ccccc2)o1 [Compound 4]"
reported_endpoint = "pEC50"
measured = "< 6.00"

[[record]]
compound = "CCC(=O)CCCCC[C@H](NC(=O)C1CNC(=O)C1)c1ncc(-c2cc3ccccc3nc2OC)o1 (stereo partly shown) [Compound 72]"
reported_endpoint = "pEC50"
measured = "6.00 to 7.00"

[[record]]
compound = "CCC(=O)CCCCC[C@H](NC(=O)C1CN(C)C1)c1ncc(-c2cc3ccccc3nc2OC)o1 [Compound 2]"
reported_endpoint = "pEC50"
measured = "6.00 to 7.00"


Challenge: Fill in the recorded pEC50 for this compound, with human γ-globin promoter (EGFP reporter) in K562 cells as test system: CCC(=O)CCCCC[C@H](NC(=O)C1(F)CCN(C)CC1)c1ncc(-c2cc3ccccc3nc2OC)o1 [Compound 68]
Response given: < 6.00

Challenge: Lab note: need pEC50 for CCC(=O)CCCCC[C@H](NC(=O)Cc1cccnc1)c1ncc(-c2cc3ccccc3nc2OC)o1 [Compound 74] on human γ-globin promoter (EGFP reporter) in K562 cells, anyone have it?
Response given: < 6.00

Challenge: Given the entry CCC(=O)CCCCC[C@H](NC(=O)Cc1c(C)[nH]c2ccc(OC)cc12)c1nnc(-c2cc3ccccc3nc2OC)o1 [Compound 48] , what pEC50 was observed with human γ-globin promoter (EGFP reporter) in K562 cells?
Response given: < 6.00

The values you see were collected from patent US9371295B2.
